target: Opioid receptors; delta & kappa (Homo sapiens, UniProt P41145+P41143); assay: Inhibition of [3H]deltorphin II binding to delta and kappa opioid receptors coexpressed in HEK 293 cells; type: cell-based; conditions: hek293
READOUT KIND: Ki (nM)
Write the number in nM without appending the unit.

Some solved cases for reference:
SMILES STRING: CNC(=O)CNC(=O)CNC(=O)CCC(=O)NCC(=O)NCC(=O)Nc1cccc2c3c([nH]c12)[C@@H]1Oc2c(O)ccc4c2[C@@]12CCN(CC1CC1)[C@H](C4)[C@]2(O)C3
Ki [nM]: 0.91
//
SMILES STRING: CN(C(=O)Cc1ccc(Cl)c(Cl)c1)[C@H](CN1CCCC1)c1cccc(NC(=O)CNC(=O)CCC(=O)NCC(=O)Nc2cccc3c4c([nH]c23)[C@@H]2Oc3c(O)ccc5c3[C@@]23CCN(CC2CC2)[C@H](C5)[C@]3(O)C4)c1
Ki [nM]: 1.23

// moving on: another record for Ki
*Q* Kindly indicate its recorded Ki. Item: CNC(=O)CNC(=O)CCC(=O)NCC(=O)Nc1cccc([C@@H](CN2CCCC2)N(C)C(=O)Cc2ccc(Cl)c(Cl)c2)c1
*A* 281.2

* * *

system: Mus musculus; experiment: Ratio of effective dose of compound producing agonistic activity in presence and absence of norbinaltorphimine (2.5 nmol) upon intrathecal administration in mouse tail flick assay
The following molecules are shown together with reported ED50 Ratio values.
Form rule: numeric answer, no unit written next to it.

Some solved cases for reference:
SMILES STRING: CN(C(=O)Cc1ccc(Cl)c(Cl)c1)[C@H](CN1CCCC1)c1cccc(NC(=O)CNC(=O)CNC(=O)CCCCC(=O)NCC(=O)NCC(=O)Nc2cccc3c4c([nH]c23)[C@@H]2Oc3c(O)ccc5c3[C@@]23CCN(CC2CC2)[C@H](C5)[C@]3(O)C4)c1
MEASURED TARGET: Mus musculus
ED50 Ratio: 3.4
//
SMILES STRING: CNC(=O)CNC(=O)CNC(=O)CCC(=O)NCC(=O)NCC(=O)Nc1cccc([C@@H](CN2CCCC2)N(C)C(=O)Cc2ccc(Cl)c(Cl)c2)c1
MEASURED TARGET: Mus musculus
ED50 Ratio: 10.8
//
SMILES STRING: CN(C(=O)Cc1ccc(Cl)c(Cl)c1)[C@H](CN1CCCC1)c1cccc(NC(=O)CNC(=O)CNC(=O)CCC(=O)NCC(=O)NCC(=O)Nc2cccc3c4c([nH]c23)[C@@H]2Oc3c(O)ccc5c3[C@@]23CCN(CC2CC2)[C@H](C5)[C@]3(O)C4)c1
MEASURED TARGET: Mus musculus
ED50 Ratio: 39.3
//
SMILES STRING: CNC(=O)CNC(=O)CCC(=O)NCC(=O)Nc1cccc([C@@H](CN2CCCC2)N(C)C(=O)Cc2ccc(Cl)c(Cl)c2)c1
MEASURED TARGET: Mus musculus
ED50 Ratio: 11

// moving on: another record for ED50 Ratio
*Q* Kindly indicate its recorded ED50 Ratio. Item: CN(C(=O)Cc1ccc(Cl)c(Cl)c1)[C@H](CN1CCCC1)c1cccc(NC(=O)CNC(=O)CCC(=O)NCC(=O)Nc2cccc3c4c([nH]c23)[C@@H]2Oc3c(O)ccc5c3[C@@]23CCN(CC2CC2)[C@H](C5)[C@]3(O)C4)c1
*A* 33

Origin of values: ChEMBL document CHEMBL1145194
